Each recorded value in this set is attributed to ChEMBL document CHEMBL5143568.

- TARGET DESC: Xanthine dehydrogenase/oxidase (Homo sapiens)
RESULT TYPE: IC50 (nM)
Output spec: scalar in nM, unitless text.

Input line: State the measured IC50 (Xanthine dehydrogenase/oxidase (Homo sapiens)) of NC1=NC(=O)/C(=C/c2cccc(F)c2)S1
Output line: 1020

---

Each entry below carries its recorded inhibition at 10 µM.
- TARGET DESC: Xanthine dehydrogenase/oxidase (Homo sapiens, UniProt P47989)
- Sequence (P47989 whole entry): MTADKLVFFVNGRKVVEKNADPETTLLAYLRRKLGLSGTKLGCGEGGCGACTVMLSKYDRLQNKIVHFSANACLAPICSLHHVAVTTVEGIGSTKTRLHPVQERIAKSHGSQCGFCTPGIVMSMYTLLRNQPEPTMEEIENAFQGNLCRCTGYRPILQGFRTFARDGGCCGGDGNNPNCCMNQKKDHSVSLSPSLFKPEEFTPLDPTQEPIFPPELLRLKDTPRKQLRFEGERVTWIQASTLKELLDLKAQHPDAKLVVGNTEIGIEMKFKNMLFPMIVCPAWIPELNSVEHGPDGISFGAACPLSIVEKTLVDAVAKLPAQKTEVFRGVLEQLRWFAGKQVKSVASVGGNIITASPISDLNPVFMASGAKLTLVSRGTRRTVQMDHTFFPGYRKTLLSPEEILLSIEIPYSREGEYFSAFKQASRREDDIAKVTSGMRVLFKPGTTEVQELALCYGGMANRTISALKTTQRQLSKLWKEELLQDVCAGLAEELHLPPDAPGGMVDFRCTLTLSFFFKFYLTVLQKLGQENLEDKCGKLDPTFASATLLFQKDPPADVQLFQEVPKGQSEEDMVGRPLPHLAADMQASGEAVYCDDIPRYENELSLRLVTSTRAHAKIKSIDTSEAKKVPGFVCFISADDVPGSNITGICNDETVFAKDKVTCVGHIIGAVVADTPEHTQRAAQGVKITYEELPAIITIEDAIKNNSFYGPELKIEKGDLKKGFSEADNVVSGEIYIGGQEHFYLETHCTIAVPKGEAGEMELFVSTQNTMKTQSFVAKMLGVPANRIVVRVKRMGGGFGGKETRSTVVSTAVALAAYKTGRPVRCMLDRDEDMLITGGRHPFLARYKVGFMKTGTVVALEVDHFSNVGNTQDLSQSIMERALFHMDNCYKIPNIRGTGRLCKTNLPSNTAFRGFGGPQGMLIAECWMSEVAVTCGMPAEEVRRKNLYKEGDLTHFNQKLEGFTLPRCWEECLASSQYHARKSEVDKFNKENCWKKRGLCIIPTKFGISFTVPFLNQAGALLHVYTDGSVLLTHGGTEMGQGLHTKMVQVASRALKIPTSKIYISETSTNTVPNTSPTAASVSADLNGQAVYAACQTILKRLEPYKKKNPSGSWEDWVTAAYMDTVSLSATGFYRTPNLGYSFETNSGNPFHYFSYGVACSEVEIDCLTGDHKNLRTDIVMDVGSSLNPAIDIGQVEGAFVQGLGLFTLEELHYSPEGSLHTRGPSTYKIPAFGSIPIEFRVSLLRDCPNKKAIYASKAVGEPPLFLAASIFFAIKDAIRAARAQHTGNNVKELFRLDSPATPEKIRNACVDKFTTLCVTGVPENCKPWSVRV
- TEST PROTOCOL: Inhibition of xanthine oxidase (unknown origin) at 10 uM measured by spectrophotometric analysis relative to control

The examples below pair each entry with its known result.
compound_structure=COc1ccc(/C=C2\SC(=S)NC2=O)cc1OC target_desc="Xanthine dehydrogenase/oxidase (Homo sapiens, UniProt P47989)" experimental_value=44.4%
compound_structure=N=C1SCC(=O)N1c1ncc(OCc2ccc(Cl)cc2Cl)s1 target_desc="Xanthine dehydrogenase/oxidase (Homo sapiens, UniProt P47989)" experimental_value="< 40%"
compound_structure=NC1=NC(=O)/C(=C/c2cc(Br)cc(Br)c2OCc2ccc(Cl)cc2Cl)S1 target_desc="Xanthine dehydrogenase/oxidase (Homo sapiens, UniProt P47989)" experimental_value="< 40%"
compound_structure=Cc1ccc(C(=O)Oc2ccc(Br)cc2/C=C2\SC(N)=NC2=O)cc1 target_desc="Xanthine dehydrogenase/oxidase (Homo sapiens, UniProt P47989)" experimental_value="< 40%"
compound_structure=O=C1N=C(S)S/C1=C/c1cc(Cl)ccc1O target_desc="Xanthine dehydrogenase/oxidase (Homo sapiens, UniProt P47989)" experimental_value="< 40%"

Input line: Consider the compound NC1=NC(=O)/C(=C/c2cccc(F)c2)S1 and give its recorded inhibition at 10 µM.
Output line: 91.5%

Input line: Consider the compound Cc1ccc(Cl)c2c1NC(=O)/C2=C1/SC(N)=NC1=O and give its recorded inhibition at 10 µM.
Output line: < 40%
